System: PC-14
assay-text: relative viability (nuclei count vs DMSO), 5 days (fraction); higher = more cells survive
stated-conditions: first compound 0.8 µM
Quick rule for you: relative viability under 0.6 gets yes (1), anything else gets no (0).

hey, is relative viability for Cc1cnc(-c2cnc(NCCNc3ccc(C#N)cn3)nc2-c2ccc(Cl)cc2Cl)[nH]1 + Cc1cc(Nc2cc(N3CCN(C)CC3)nc(Sc3ccc(NC(=O)C4CC4)cc3)n2)n[nH]1 [Tozasertib] (partner 0.1 µM) lower than 0.6 or not? yes (1)

hey, is relative viability for O=c1[nH]c2ccccc2n1C1CCN(CCCC(c2ccc(F)cc2)c2ccc(F)cc2)CC1 [Pimozide] + C[C@@H](Oc1cc(-c2cnn(C3CCNCC3)c2)cnc1N)c1c(Cl)ccc(F)c1Cl [Crizotinib] (partner 1 µM) lower than 0.6 or not? no (0)

hey, is relative viability for Cc1cnc(-c2cnc(NCCNc3ccc(C#N)cn3)nc2-c2ccc(Cl)cc2Cl)[nH]1 + Cc1nc(NC(=O)N2CCC[C@H]2C(N)=O)sc1-c1ccnc(C(C)(C)C(F)(F)F)c1 [Alpelisib] (partner 2 µM) lower than 0.6 or not? no (0)

hey, is relative viability for O=c1[nH]c2ccccc2n1C1CCN(CCCC(c2ccc(F)cc2)c2ccc(F)cc2)CC1 [Pimozide] + Cc1nc(Nc2ncc(C(=O)Nc3c(C)cccc3Cl)s2)cc(N2CCN(CCO)CC2)n1 [Dasatinib] (partner 0.075 µM) lower than 0.6 or not? yes (1)

hey, is relative viability for Cc1cnc(-c2cnc(NCCNc3ccc(C#N)cn3)nc2-c2ccc(Cl)cc2Cl)[nH]1 + O=C(c1cc(Cc2n[nH]c(=O)c3ccccc23)ccc1F)N1CCN(C(=O)C2CC2)CC1 [Olaparib] (partner 8 µM) lower than 0.6 or not? yes (1)

hey, is relative viability for O=c1[nH]c2ccccc2n1C1CCN(CCCC(c2ccc(F)cc2)c2ccc(F)cc2)CC1 [Pimozide] + CS(=O)(=O)N1CCN(Cc2cc3nc(-c4cccc5[nH]ncc45)nc(N4CCOCC4)c3s2)CC1 [Pictilisib] (partner 1 µM) lower than 0.6 or not? no (0)

====

Tested on: NCI-H358
assay-text: relative viability (nuclei count vs DMSO), 5 days (fraction); higher = more cells survive
stated-conditions: first compound 0.006325 µM
For each entry below, report its relative viability value.
No unit in the answer, please; the number alone is enough.

Determine from records and report relative viability for CC(=O)O[C@@]12CO[C@@H]1C[C@H](O)[C@@]1(C)C(=O)[C@H](O)C3=C(C)[C@@H](OC(=O)[C@H](O)[C@@H](NC(=O)OC(C)(C)C)c4ccccc4)C[C@@](O)([C@@H](OC(=O)c4ccccc4)[C@H]21)C3(C)C [Docetaxel] + O=C(c1cc(Cc2n[nH]c(=O)c3ccccc23)ccc1F)N1CCN(C(=O)C2CC2)CC1 [Olaparib] (partner 8 µM) 0.147

Determine from records and report relative viability for CC(=O)O[C@@]12CO[C@@H]1C[C@H](O)[C@@]1(C)C(=O)[C@H](O)C3=C(C)[C@@H](OC(=O)[C@H](O)[C@@H](NC(=O)OC(C)(C)C)c4ccccc4)C[C@@](O)([C@@H](OC(=O)c4ccccc4)[C@H]21)C3(C)C [Docetaxel] + CC(=O)c1c(C)c2cnc(Nc3ccc(N4CCNCC4)cn3)nc2n(C2CCCC2)c1=O [Palbociclib] (partner 0.5 µM) 0.126

Determine from records and report relative viability for CC(=O)O[C@@]12CO[C@@H]1C[C@H](O)[C@@]1(C)C(=O)[C@H](O)C3=C(C)[C@@H](OC(=O)[C@H](O)[C@@H](NC(=O)OC(C)(C)C)c4ccccc4)C[C@@](O)([C@@H](OC(=O)c4ccccc4)[C@H]21)C3(C)C [Docetaxel] + CCNC(=O)c1noc(-c2cc(C(C)C)c(O)cc2O)c1-c1ccc(CN2CCOCC2)cc1 [Luminespib] (partner 0.01 µM) 0.12

====

For each entry below, report its relative viability value.
Test system: NCI-H1563
assay-text: relative viability (nuclei count vs DMSO), 5 days (fraction); higher = more cells survive
stated-conditions: first compound 158.11 µM
No unit in the answer, please; the number alone is enough.

Fetch value of relative viability on NCI-H1563 for O=C(O)CCCCC(CCSCc1ccccc1)SCc1ccccc1 (centres undefined) [CPI-613] + Cc1nc(NC(=O)N2CCC[C@H]2C(N)=O)sc1-c1ccnc(C(C)(C)C(F)(F)F)c1 [Alpelisib] (partner 2 µM) . 0.796

Fetch value of relative viability on NCI-H1563 for O=C(O)CCCCC(CCSCc1ccccc1)SCc1ccccc1 (centres undefined) [CPI-613] + C[C@]1(O)C[C@@H](c2nc(-c3ccc4ccc(-c5ccccc5)nc4c3)c3c(N)nccn32)C1 [Linsitinib] (partner 1 µM) . 0.454

Fetch value of relative viability on NCI-H1563 for O=C(O)CCCCC(CCSCc1ccccc1)SCc1ccccc1 (centres undefined) [CPI-613] + CS(=O)(=O)N1CCN(Cc2cc3nc(-c4cccc5[nH]ncc45)nc(N4CCOCC4)c3s2)CC1 [Pictilisib] (partner 1 µM) . 0.513

Fetch value of relative viability on NCI-H1563 for O=C(O)CCCCC(CCSCc1ccccc1)SCc1ccccc1 (centres undefined) [CPI-613] + Nc1nc2[nH]cc(CCc3ccc(C(=O)N[C@@H](CCC(=O)O)C(=O)O)cc3)c2c(=O)[nH]1 [Pemetrexed] (partner 0.2 µM) . 0.631

====

Tested on: NCI-H647
assay-text: relative viability (nuclei count vs DMSO), 5 days (fraction); higher = more cells survive
stated-conditions: first compound 0.8 µM
reported-metric: relative viability
No unit in the answer, please; the number alone is enough.

Determine from records and report relative viability for Cc1cnc(-c2cnc(NCCNc3ccc(C#N)cn3)nc2-c2ccc(Cl)cc2Cl)[nH]1 + Cc1cc(Nc2cc(N3CCN(C)CC3)nc(Sc3ccc(NC(=O)C4CC4)cc3)n2)n[nH]1 [Tozasertib] (partner 0.1 µM) 0.263

Determine from records and report relative viability for Cc1cnc(-c2cnc(NCCNc3ccc(C#N)cn3)nc2-c2ccc(Cl)cc2Cl)[nH]1 + C[C@@H](Oc1cc(-c2cnn(C3CCNCC3)c2)cnc1N)c1c(Cl)ccc(F)c1Cl [Crizotinib] (partner 1 µM) 1.07

Determine from records and report relative viability for O=c1[nH]c2ccccc2n1C1CCN(CCCC(c2ccc(F)cc2)c2ccc(F)cc2)CC1 [Pimozide] + N=C(N)NC(=N)NCCc1ccccc1 [Phenformin] (partner 250 µM) 0.435

====

Tested on: NCI-H1666
assay-text: relative viability (nuclei count vs DMSO), 5 days (fraction); higher = more cells survive
stated-conditions: first compound 0.0002 µM
reported-metric: relative viability
No unit in the answer, please; the number alone is enough.

Determine from records and report relative viability for CC(=O)O[C@@]12CO[C@@H]1C[C@H](O)[C@@]1(C)C(=O)[C@H](O)C3=C(C)[C@@H](OC(=O)[C@H](O)[C@@H](NC(=O)OC(C)(C)C)c4ccccc4)C[C@@](O)([C@@H](OC(=O)c4ccccc4)[C@H]21)C3(C)C [Docetaxel] + C[C@@H](Oc1cc(-c2cnn(C3CCNCC3)c2)cnc1N)c1c(Cl)ccc(F)c1Cl [Crizotinib] (partner 1 µM) 0.67

Determine from records and report relative viability for CC(=O)O[C@@]12CO[C@@H]1C[C@H](O)[C@@]1(C)C(=O)[C@H](O)C3=C(C)[C@@H](OC(=O)[C@H](O)[C@@H](NC(=O)OC(C)(C)C)c4ccccc4)C[C@@](O)([C@@H](OC(=O)c4ccccc4)[C@H]21)C3(C)C [Docetaxel] + Nc1ncn([C@H]2C[C@H](O)[C@@H](CO)O2)c(=O)n1 [Decitabine] (partner 2 µM) 0.594

Determine from records and report relative viability for CC(=O)O[C@@]12CO[C@@H]1C[C@H](O)[C@@]1(C)C(=O)[C@H](O)C3=C(C)[C@@H](OC(=O)[C@H](O)[C@@H](NC(=O)OC(C)(C)C)c4ccccc4)C[C@@](O)([C@@H](OC(=O)c4ccccc4)[C@H]21)C3(C)C [Docetaxel] + CCNC(=O)c1noc(-c2cc(C(C)C)c(O)cc2O)c1-c1ccc(CN2CCOCC2)cc1 [Luminespib] (partner 0.01 µM) 0.943

Determine from records and report relative viability for CC(=O)O[C@@]12CO[C@@H]1C[C@H](O)[C@@]1(C)C(=O)[C@H](O)C3=C(C)[C@@H](OC(=O)[C@H](O)[C@@H](NC(=O)OC(C)(C)C)c4ccccc4)C[C@@](O)([C@@H](OC(=O)c4ccccc4)[C@H]21)C3(C)C [Docetaxel] + Cc1cc(Nc2cc(N3CCN(C)CC3)nc(Sc3ccc(NC(=O)C4CC4)cc3)n2)n[nH]1 [Tozasertib] (partner 0.1 µM) 0.564

Determine from records and report relative viability for CC(=O)O[C@@]12CO[C@@H]1C[C@H](O)[C@@]1(C)C(=O)[C@H](O)C3=C(C)[C@@H](OC(=O)[C@H](O)[C@@H](NC(=O)OC(C)(C)C)c4ccccc4)C[C@@](O)([C@@H](OC(=O)c4ccccc4)[C@H]21)C3(C)C [Docetaxel] + COc1cccc2cc(-c3nc([C@H]4CC[C@H](C(=O)O)CC4)n4ncnc(N)c34)[nH]c12 [OSI-027] (partner 0.5 µM) 0.739

Data origin, for the record: the supplement of paper PMC10307832
